Source listed as patent US7659240B2.

system: mucin immobilized to PC IAM particles; test: pH and mucin layer thickness dependence of partition ratio on MIC columns (1:2 and 2:1); settings: column 2:1 mucin to PC IAM, 0.36 μm mucin layer; mobile phase pH 5
Give measured (2:1) k′ (pH 5) for each item. Keep answers brief.
Respond using a number only.

### Prompt For the compound Cn1c(=O)c2c(ncn2C)n(C)c1=O , what (2:1) k′ (pH 5) is on record?
### Response 34.71

### Prompt For the compound CN(Cc1cnc2nc(N)nc(N)c2n1)c1ccc(C(=O)N[C@@H](CCC(=O)O)C(=O)O)cc1 , what (2:1) k′ (pH 5) is on record?
### Response 13.29

### Prompt For the compound CC(C)NCC(O)COc1ccc(CC(N)=O)cc1 (stereo not shown) , what (2:1) k′ (pH 5) is on record?
### Response 31.86

###

Give measured (1:2) k′ (pH 5) for each item. Keep answers brief.
system: mucin immobilized to PC IAM particles; assay: pH and mucin layer thickness dependence of partition ratio on MIC columns (1:2 and 2:1); details: column 1:2 mucin to PC IAM, 0.32 μm mucin layer; mobile phase pH 5
Where a name gives a salt, the structure may show the parent alone.
Respond using a number only.

### Prompt For the molecule CCOC(=O)[C@H](CCc1ccccc1)N[C@@H](C)C(=O)N1CCC[C@H]1C(=O)O [enalapril maleate] , what (1:2) k′ (pH 5) is on record?
### Response 37.33

### Prompt For the molecule CC(=O)Nc1ccc(O)cc1 [acetaminophen] , what (1:2) k′ (pH 5) is on record?
### Response 65.67

### Prompt For the molecule CC(=O)Oc1ccccc1C(=O)O [acetyl salicylic acid] , what (1:2) k′ (pH 5) is on record?
### Response 40.67

### Prompt For the molecule CC(COc1ccccc1)N(CCCl)Cc1ccccc1 (stereo not shown) [Phenoxybenzamine HCl] , what (1:2) k′ (pH 5) is on record?
### Response 29.00

###

system: mucin immobilized to PC IAM particles; assay: pH and mucin layer thickness dependence of partition ratio on MIC columns (1:2 and 2:1); conditions: column 2:1 mucin to PC IAM, 0.36 μm mucin layer; mobile phase pH 3
MEASURED PROPERTY: (2:1) k′ (pH 3)
Respond using a number only.

### Prompt Value wanted: (2:1) k′ (pH 3) (mucin immobilized to PC IAM particles) of entry CC(=O)Oc1ccccc1C(=O)O
### Response 30.43

### Prompt Value wanted: (2:1) k′ (pH 3) (mucin immobilized to PC IAM particles) of entry NS(=O)(=O)c1cc(C(=O)O)c(NCc2ccco2)cc1Cl [Furosemide]
### Response 30.43

###

test system: mucin immobilized to PC IAM particles; test: pH and mucin layer thickness dependence of partition ratio on MIC columns (1:2 and 2:1); settings: column 1:2 mucin to PC IAM, 0.32 μm mucin layer; mobile phase pH 3
MEASURED PROPERTY: (1:2) k′ (pH 3)

| MOLECULE | EXPERIMENTAL TARGET | OBSERVED VALUE |
| --- | --- | --- |
| COc1ccc(Cl)cc1C(=O)NCCc1ccc(S(=O)(=O)NC(=O)NC2CCCCC2)cc1 [glybenclamide] | mucin immobilized to PC IAM particles | none |
| CC(C)C[C@H](N)C(=O)O [leucine] | mucin immobilized to PC IAM particles | none |
| NCC(=O)O [glycine] | mucin immobilized to PC IAM particles | none |
